Target: Sodium-dependent serotonin transporter (Rattus norvegicus, UniProt P31652)
Sequence (P31652 whole entry): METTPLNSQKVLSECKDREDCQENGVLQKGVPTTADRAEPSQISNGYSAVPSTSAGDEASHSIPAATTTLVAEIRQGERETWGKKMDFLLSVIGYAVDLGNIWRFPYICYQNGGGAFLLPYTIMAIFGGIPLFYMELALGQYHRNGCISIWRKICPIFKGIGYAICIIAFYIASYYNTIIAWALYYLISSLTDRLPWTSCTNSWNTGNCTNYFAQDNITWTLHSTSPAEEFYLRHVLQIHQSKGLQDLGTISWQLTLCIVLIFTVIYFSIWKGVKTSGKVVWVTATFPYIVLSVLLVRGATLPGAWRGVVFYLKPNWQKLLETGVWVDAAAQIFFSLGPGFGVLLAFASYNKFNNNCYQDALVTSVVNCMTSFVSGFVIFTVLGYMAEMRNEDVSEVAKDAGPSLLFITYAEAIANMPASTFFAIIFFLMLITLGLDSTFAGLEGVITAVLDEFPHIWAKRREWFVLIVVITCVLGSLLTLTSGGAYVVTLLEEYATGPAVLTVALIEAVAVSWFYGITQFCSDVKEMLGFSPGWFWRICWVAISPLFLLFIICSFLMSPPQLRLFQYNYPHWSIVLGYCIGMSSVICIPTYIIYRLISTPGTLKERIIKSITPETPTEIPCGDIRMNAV
Experiment: Inhibition of 5-HT uptake in rat synaptosomal fraction
RESULT TYPE: pIC50
Numbers only, as −log10 of the molar value.

MOLECULE: CN(C)C1CC(c2ccc(Cl)cc2)c2ccccc21 (stereo in doubt; 35)
pIC50: 9.19

Dear reader, for each entry below, please note its pIC50.
1. CN(C)C1CC(c2ccc(F)cc2)c2ccc(C(F)(F)F)cc21 (stereo in doubt; 57)
2. CNC1CC(c2ccc(Br)cc2)c2ccccc21 (stereo in doubt; 36)
3. CCCN(CCC)C1CC(c2ccc(Cl)c(Cl)c2)c2ccccc21.Cl (stereo in doubt; 89)

// result
1. 7.37
2. 9.55
3. 6.14
